# System: HGC27
# test: CellTiter-Blue cell-based survival/proliferation assay, HGC27
# testParameters: Homo sapiens, HGC-27; HGC27 stomach tumor cell line, 48 h
# Method: Cell-Based Proliferation Screening of Compounds CellTiter-Blue cell-based survival/proliferation assay (Promega G8080) was performed on tumor cell lines. A total of 1·10^4 cells/well/50 μl were seeded in a 96-wells plate. Treatment was initiated by addition of a 2× drug solution of 1/10 serial dilutions ranging from 0 to 10 μM. […] The amount of resorufin dye formed was quantified by its fluorescence emission at 590 nm using a scanning multiwell spectrophotometer (OPTIMA, BMG labtech, France). […]
endpointLabel: IC50

In [3]: df
Out[3]:
                                 chemsmiles  endpointlabel  endpointresult
0  CCOCc1ccc(C)c(Nc2ncc(-c3ccc(N4CCN(CCNC(C)=O)C4=O)cc3)o2)c1           IC50          > 1 µM
1  Cc1ccc(OCCN2CCOCC2)cc1Nc1ncc(-c2ccc(-n3cccn3)cc2)o1           IC50          > 1 µM
2  CCOCc1cc(COCC)cc(Nc2ncc(-c3ccc(-n4cccn4)cc3)o2)c1           IC50          > 1 µM
3  CCOCc1ccc(C)c(Nc2ncc(-c3ccc(-n4ccnn4)cc3)o2)c1           IC50          > 1 µM
4  CCOCc1cc(C)cc(Nc2nc(-c3ccc(N4CCNC4=O)cc3)cs2)c1           IC50     0.5 to 1 µM

Exercise: Looking for the measured IC50 of CCOCc1cc(Nc2ncc(-c3ccc(N4CCNC4=O)cc3)o2)cc(OCCOC)c1 , can you help?
Solution: > 1 µM

Exercise: Repeat with CCOCc1ccc(C)c(Nc2ncc(-c3ccc(-c4ccccn4)cc3)o2)c1
Solution: > 1 µM

Exercise: Repeat with CNC(=O)c1ccc(C)c(Nc2ncc(-c3ccc(-n4cccn4)cc3)o2)c1
Solution: > 1 µM

Exercise: Repeat with CCOCc1ccc(C)c(Nc2ncc(-c3ccc(N4CCNC4=O)cc3)s2)c1
Solution: > 1 µM

Exercise: Repeat with CCOCc1ccc(C)c(Nc2nnc(-c3ccc(N4CCNC4=O)cc3)o2)c1
Solution: 0.5 to 1 µM

Exercise: Repeat with CCOCc1ccc(C)c(Nc2ncc(-c3ccc(-n4ccccc4=O)cc3)o2)c1
Solution: > 1 µM

Exercise: Repeat with CCOCc1ccc(C)c(Nc2ncc(-c3ccc(-n4cccn4)c(OC)c3)o2)c1
Solution: > 1 µM

Exercise: Repeat with Cc1ccc(COCCN)cc1Nc1ncc(-c2ccc(-n3cccn3)cc2)o1
Solution: > 1 µM

###

# Test system: HGC27
# test: CellTiter-Blue cell-based survival/proliferation assay, HGC27
# testParameters: Homo sapiens, HGC-27; HGC27 stomach tumor cell line, 48 h
pIC50: −log10 of the molar value.
endpointLabel: pIC50

                                 chemsmiles  systemtested  endpointresult
0  CCOCc1ccc(C)c(Nc2ncc(-c3ccc(N4CCNC4=O)nc3)o2)c1         HGC27    6.00 to 6.30
1  CCOCc1ccc(C)c(Nc2ncc(-c3ccc(-n4nccc4C)cc3)o2)c1         HGC27          < 6.00
2  CCOCc1ccc(C)c(Nc2ncc(-c3ccc(-n4ccc(C)n4)cc3)o2)c1         HGC27          < 6.00
3  COc1ccc(C)c(Nc2ncc(-c3ccc(-n4cccn4)cc3)s2)c1         HGC27          < 6.00
4  CCOCc1ccc(C)c(Nc2ncc(-c3ccc(-n4c(C)n[nH]c4=O)cc3)o2)c1         HGC27          < 6.00

Exercise: Looking for the measured pIC50 of CCOCc1ccc(C)c(Nc2ncc(-c3ccc(-n4cncn4)cc3)o2)c1 , can you help?
Solution: < 6.00

Exercise: Repeat with CCOCc1ccc(C)c(Nc2nc(-c3ccc(N4CCNC4=O)cc3)ns2)c1
Solution: ≥ 7.00

Exercise: Repeat with Cc1ccc(OCCN(C)C)cc1Nc1ncc(-c2ccc(-n3cccn3)cc2)o1
Solution: < 6.00

Exercise: Repeat with CCOCc1ccc(C)c(Nc2ncc(-c3ccc(-n4cc(C)cn4)cc3)o2)c1
Solution: < 6.00
